Tested on: HOP-92 NSCLC
Test: NCI tumour cell line growth inhibition, 48 h; in the data active means GI50 below about 0.43 µM; inactive means the rest
Respond using exactly one of the listed classes: YES for active, NO for inactive

[
  {
    "compound": "Cc1cn2c(/C=N/N=C(N)N)c(-c3ccncc3)nc2s1",
    "discreteLabel": "NO"
  },
  {
    "compound": "COc1cc(Nc2ncnc(Nc3ccc4c(n3)NC(=O)C(C)(C)O4)n2)cc(OC)c1OC",
    "discreteLabel": "YES"
  },
  {
    "compound": "COc1ccc(-c2nsc3c2NC(=O)CC3c2cccc(Cl)c2)cc1 (stereo not given)",
    "discreteLabel": "NO"
  }
]

Give the logged outcome of this assay for the following compound: COc1cc2nc(-c3cccc4cccnc34)nc(NC3CCN(Cc4ccccc4)CC3)c2cc1OC
NO

# outcome recorded in this test, key = C[C@H](NC(=O)c1c(C(F)F)nn(C)c1Oc1cccc(C(F)(F)F)c1)c1ccc(C(=O)O)cc1
NO

Answer briefly: the call reported for CCc1nn2ncccc2c1-c1ccnc(NC2CC2)n1 in this assay.
NO

----------
System: SNB-75 CNS
Experiment: NCI tumour cell line growth inhibition, 48 h
assayReadout: TGI (µM)
The response must be a number in µM with no trailing unit.

In the examples that follow, each entry is paired with its recorded TGI.
[
  {
    "lineNotation": "N#Cc1c(-c2ccc([N+](=O)[O-])cc2)cc(-c2ccc(Nc3ccnc4cc(Cl)ccc34)cc2)nc1N",
    "testTarget": "SNB-75 CNS",
    "TGI, µM": 34.6
  },
  {
    "lineNotation": "COCOc1cc(OC)ccc1C/C(=N/O)C(=O)OC",
    "testTarget": "SNB-75 CNS",
    "TGI, µM": 74.4
  },
  {
    "lineNotation": "CC[n+]1c(/C=C/c2ccc(N(CCCl)CCCl)cc2)ccc2cc(I)ccc21",
    "testTarget": "SNB-75 CNS",
    "TGI, µM": 0.903
  }
]

Continue with the next compound.
// returns TGI for Cc1c(C)c2c(c(C)c1OCC(=O)O)CC[C@@](C)(CCC[C@@H](C)CCC[C@@H](C)CCCC(C)C)O2 with SNB-75 CNS; value = 141

----------
System: SK-OV-3 ovarian
Assay: NCI tumour cell line growth inhibition, 48 h; in the data active = GI50 below about 0.43 µM; inactive = the rest
Form entry, call: pick from YES (active), NO (inactive)

Here's what some known entries look like.
[
  {
    "compound": "COc1cc2nc(-c3cccc4cccnc34)nc(NC3CCN(Cc4ccccc4)CC3)c2cc1OC",
    "discreteLabel": "NO"
  },
  {
    "compound": "COc1cccc(NC(=O)c2sc3nc4c(cc3c2N)C(O)CCC4)c1 (stereo not drawn)",
    "discreteLabel": "YES"
  },
  {
    "compound": "Cc1ccc(O)c(NC2=C(Cl)C(=O)N(Cc3ccccc3)C2=O)c1",
    "discreteLabel": "NO"
  },
  {
    "compound": "O=C(/C=C\\n1cnc(-c2cc(C(F)(F)F)cc(C(F)(F)F)c2)n1)N1CC(F)(F)C1",
    "discreteLabel": "NO"
  },
  {
    "compound": "Nc1ccc(-c2ccc3ncc4ccc(=O)n(-c5cccc(C(F)(F)F)c5)c4c3c2)cn1",
    "discreteLabel": "YES"
  },
  {
    "compound": "COc1cc(-c2nccc3cc4c(cc23)OCO4)cc(OC)c1OC",
    "discreteLabel": "NO"
  },
  {
    "compound": "C=C(CN1c2ccccc2Sc2ccccc21)c1ccc(C(=O)Nc2ccccc2N)cc1",
    "discreteLabel": "NO"
  },
  {
    "compound": "Oc1c(O)c(Cl)c(Cl)c(Cl)c1Cl",
    "discreteLabel": "NO"
  }
]

Returns: the outcome recorded for CCc1nc2cc(/C=C/C(=O)NO)ccc2c(=O)n1CCc1ccc(OC)cc1 in this assay.
NO

Which outcome was entered for the compound CCN(CC)c1ccc2nc3ccc(N=Nc4ccc(O)cc4)cc3[n+](-c3ccccc3)c2c1 in this test?
NO

Look up the recorded call for COc1ccc(-c2nc(N)c(C#N)c3c2CCOc2c-3ccc3ccccc23)cc1 in this test.
NO

Hi, do you know how C[C@H](NC(=O)c1c(C(F)F)nn(C)c1Oc1cccc(C(F)(F)F)c1)c1ccc(C(=O)O)cc1 came out in this test?
NO

How did this test come out for COc1ccc2nc3cccc([N+](=O)[O-])c3c(NCCNCCN(C)C)c2c1 ?
NO

Each recorded value in this set is attributed to PubChem BioAssay (NCI).
